Value source: paper PMC2970562

TARGET UNDER TEST: human 15-PGDH (Homo sapiens)
Construct: comprising residues 3–256 of the human HPGD gene (GenBank identifier: 1203982); His6 (GHHHHHH, behind the TEV site) (C, cleaved yes); made in house; host or cells: E. coli BL21(DE3)-R3
Sequence (P15428 3-256): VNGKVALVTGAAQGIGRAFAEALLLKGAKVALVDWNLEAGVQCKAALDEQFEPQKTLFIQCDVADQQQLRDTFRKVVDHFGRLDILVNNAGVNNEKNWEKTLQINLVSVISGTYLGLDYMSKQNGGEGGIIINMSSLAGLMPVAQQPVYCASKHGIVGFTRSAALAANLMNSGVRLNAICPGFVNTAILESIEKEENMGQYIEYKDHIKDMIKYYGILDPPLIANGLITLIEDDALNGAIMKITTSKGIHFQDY
PROCEDURE DETAILS: qHTS and 24-point re-test: fluorescence assay of NAD+ reduction to NADH on PGE2 oxidation (PubChem AID 894)
Format: biochemical
TEST SETTINGS: potency in 24-point titrations on re-test; 20 nM 15-PGDH, 1 mM NAD+, 30 µM PGE2, pH 8.0; read-out: qHTS IC50
OBSERVABLE: IC50 (nM)

Known IC50 results, listed for orientation:
COc1ccc(OC)c(NC(=O)Cc2cc(Cl)ccc2OC)c1 : 562
Cc1cc(C(=O)N2CCN(C)CC2)c(C)n1C1CC1 : 2240

1. Cc1ccc2cc3c(N)c(C(=O)N4CCC(C)CC4)sc3nc2c1
2. COc1ccc(C(=O)OCC(=O)Nc2c(C)cccc2C)cc1S(=O)(=O)N(C)C
Asked: Could you determine which record has the numerically smaller IC50? Candidates: 1 and 2 Identify your pick by its label.
Given back: 1

1. Cc1ccc2nc(Cl)c(CO)cc2c1
2. Cc1ccc(-c2nc3c4cnn(-c5cccc(Cl)c5)c4ncn3n2)cc1
Asked: Given 1 and given 2 , which shows the smaller recorded IC50? Provide the label of your selected option as the answer.
Given back: 1
